Biological target: TDO (A172 human glioblastoma cells) (Homo sapiens)
Construct: This assay utilised cancer cells which expressed either TDO or IDO; endogenous in cells; host or cells: A172 human glioblastoma cells
Experiment: A172 Kynurenine cell based assay
Conditions: 500 μM L-tryptophan, 48 hours, kynurenine by Erhlich's reagent
TEST READOUT: A172 Kynurenine cell based assay pIC50

>>> measured_value("CC(=O)N1CCC(c2c[nH]c3ccc(OCc4ccccc4)cc23)CC1")
"+ (+ = pIC50 4.00-4.99)"
>>> measured_value("CCCc1cc(C(=O)N2CCC(c3c[nH]c4cc(F)ccc34)CC2)[nH]n1")
"+ (+ = pIC50 4.00-4.99)"

====

Target: IDO (SKOV3 human ovarian adenocarcinoma cells, IFN-γ induced) (Homo sapiens)
Construct: IDO expression was induced in the SKOV3 cells by the addition of 500 ng/ml IFN-γ; endogenous in cells; host or cells: SKOV3 human ovarian adenocarcinoma cells, induced with IFN-γ
Sequence (P14902 whole entry): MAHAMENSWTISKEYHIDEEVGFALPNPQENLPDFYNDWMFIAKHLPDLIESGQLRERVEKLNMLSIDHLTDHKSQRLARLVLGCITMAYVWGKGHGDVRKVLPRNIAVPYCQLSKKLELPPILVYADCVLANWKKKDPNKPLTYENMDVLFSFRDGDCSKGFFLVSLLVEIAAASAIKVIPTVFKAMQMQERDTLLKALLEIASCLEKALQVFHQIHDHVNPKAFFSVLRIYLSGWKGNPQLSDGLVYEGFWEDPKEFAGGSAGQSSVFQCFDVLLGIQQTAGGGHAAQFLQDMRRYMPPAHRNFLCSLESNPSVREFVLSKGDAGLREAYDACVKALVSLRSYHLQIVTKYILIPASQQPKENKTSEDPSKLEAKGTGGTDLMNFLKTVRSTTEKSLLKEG
Test: SKOV3 Kynurenine cell based assay
Conditions: IDO induced by 500 ng/ml IFN-γ, 500 μM L-tryptophan, 48 hours
TEST READOUT: SKOV3 Kynurenine cell based assay pIC50

>>> measured_value("O=C(C1CC1)N1CCC(c2c[nH]c3cc(F)ccc23)CC1")
"+ (+ = pIC50 4.00-4.99)"
>>> measured_value("CS(=O)(=O)N1CCCC(c2c[nH]c3cc(F)ccc23)CC1 (stereo not shown)")
"+ (+ = pIC50 4.00-4.99)"
>>> measured_value("O=C(N1CCC(c2c[nH]c3cc(F)ccc23)CC1)C1(c2ccccc2)CC1")
"+ (+ = pIC50 4.00-4.99)"
>>> measured_value("O=C(C1CC1)N1CCC(c2c[nH]c3ccccc23)CC1")
"+− (+− = pIC50 <4.00)"
>>> measured_value("Cc1cccc2c(C3CCN(C(=O)c4cc(Cl)cnc4Cl)CC3)c[nH]c12")
"+ (+ = pIC50 4.00-4.99)"
>>> measured_value("NS(=O)(=O)N1CC=C(c2c[nH]c3ccccc23)CC1")
"+− (+− = pIC50 <4.00)"
>>> measured_value("CC(=O)N1CC=C(c2c[nH]c3cc(OCc4ccccc4)ccc23)CC1")
"+ (+ = pIC50 4.00-4.99)"
>>> measured_value("CC(=O)N1CC=C(c2c[nH]c3ccc(F)cc23)CC1")
"+ (+ = pIC50 4.00-4.99)"
>>> measured_value("CC(=O)N1CC=C(c2c[nH]c3c(Cl)cccc23)CC1")
"+ (+ = pIC50 4.00-4.99)"
>>> measured_value("Cc1ccc2[nH]cc(C3CCN(S(=O)(=O)c4ccc(C(C)(C)C)cc4)CC3)c2c1")
"+ (+ = pIC50 4.00-4.99)"
>>> measured_value("CS(=O)(=O)N1CCCN(c2c[nH]c3ccccc23)CC1")
"+ (+ = pIC50 4.00-4.99)"
>>> measured_value("CC(=O)N1CCC(c2c[nH]c3cc(F)c(Cl)cc23)CC1")
"+ (+ = pIC50 4.00-4.99)"
>>> measured_value("COc1cccc2c(C3=CCN(S(C)(=O)=O)CC3)c[nH]c12")
"+− (+− = pIC50 <4.00)"
>>> measured_value("COc1ccc2[nH]cc(C3=CCN(C(C)=O)CC3)c2c1")
"+− (+− = pIC50 <4.00)"
>>> measured_value("CS(=O)(=O)N1CCC(c2c[nH]c3ccccc23)C(O)C1 (stereo not shown)")
"+− (+− = pIC50 <4.00)"
>>> measured_value("O=S(=O)(C1CC1)N1CCC(c2c[nH]c3cc(F)ccc23)CC1")
"+ (+ = pIC50 4.00-4.99)"
>>> measured_value("CS(=O)(=O)N1CCC(c2c[nH]c3cc(C(F)(F)F)ccc23)CC1")
"+ (+ = pIC50 4.00-4.99)"
>>> measured_value("Cc1cccc2c(C3CCN(S(=O)(=O)c4ccccc4S(C)(=O)=O)CC3)c[nH]c12")
"+ (+ = pIC50 4.00-4.99)"

====

Biological target: TDO (A172 human glioblastoma cells) (Homo sapiens)
Construct: This assay utilised cancer cells which expressed either TDO or IDO; endogenous in cells; host or cells: A172 human glioblastoma cells
Test: A172 Kynurenine cell based assay
Conditions: 500 μM L-tryptophan, 48 hours, kynurenine by Erhlich's reagent
TEST READOUT: A172 Kynurenine cell based assay pIC50

>>> measured_value("COCC(=O)N1CCC(c2c[nH]c3ccccc23)CC1")
"+ (+ = pIC50 4.00-4.99)"
>>> measured_value("CS(=O)(=O)N1CC=C(c2c[nH]c3c(F)cccc23)CC1")
"+ (+ = pIC50 4.00-4.99)"
>>> measured_value("O=S(=O)(c1cc(C(F)(F)F)ccc1C(F)(F)F)N1CCC(c2c[nH]c3ccc(F)cc23)CC1")
"+− (+− = pIC50 <4.00)"
>>> measured_value("Cc1ccc2[nH]cc(C3CCN(S(=O)(=O)c4ccc(Br)cc4OC(F)(F)F)CC3)c2c1")
"+ (+ = pIC50 4.00-4.99)"
>>> measured_value("COC(=O)c1ccccc1S(=O)(=O)N1CCC(c2c[nH]c3ccc(C#N)cc23)CC1")
"+− (+− = pIC50 <4.00)"
>>> measured_value("Cc1ccc(S(=O)(=O)N2CCC(c3c[nH]c4ccccc34)CC2)c(C)c1")
"+ (+ = pIC50 4.00-4.99)"
>>> measured_value("CC(C)C(=O)N1CCC(c2c[nH]c3cc(F)ccc23)CC1")
"+ (+ = pIC50 4.00-4.99)"
>>> measured_value("CC(=O)N1CC=C(c2c[nH]c3ccc(C#N)cc23)CC1")
"+ (+ = pIC50 4.00-4.99)"
>>> measured_value("Cc1cccc2c(C3CCN(S(=O)(=O)c4ccc5c(c4)CN(C(=O)C(F)(F)F)CC5)CC3)c[nH]c12")
"+− (+− = pIC50 <4.00)"
>>> measured_value("CC(=O)N1CC=C(c2c[nH]c3cccc(F)c23)CC1")
"+ (+ = pIC50 4.00-4.99)"

====

Biological target: TDO (A172 human glioblastoma cells) (Homo sapiens, UniProt P48775)
Construct: This assay utilised cancer cells which expressed either TDO or IDO; endogenous in cells; host or cells: A172 human glioblastoma cells
Sequence (P48775 whole entry): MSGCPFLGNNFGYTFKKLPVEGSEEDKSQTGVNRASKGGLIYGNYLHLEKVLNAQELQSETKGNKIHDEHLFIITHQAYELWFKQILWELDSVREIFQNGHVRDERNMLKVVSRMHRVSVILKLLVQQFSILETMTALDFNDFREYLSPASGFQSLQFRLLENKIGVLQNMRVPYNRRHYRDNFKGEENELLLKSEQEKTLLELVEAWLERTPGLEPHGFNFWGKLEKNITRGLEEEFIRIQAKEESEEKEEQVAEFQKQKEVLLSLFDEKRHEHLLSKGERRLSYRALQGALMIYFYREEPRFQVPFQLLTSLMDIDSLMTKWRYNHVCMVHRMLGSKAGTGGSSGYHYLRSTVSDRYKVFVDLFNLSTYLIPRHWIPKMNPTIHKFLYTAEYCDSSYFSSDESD
Test: A172 Kynurenine cell based assay
Details: 500 μM L-tryptophan, 48 hours, kynurenine by Erhlich's reagent
TEST READOUT: A172 Kynurenine cell based assay pIC50

>>> measured_value("O=S(=O)(c1cccc(OC(F)(F)F)c1)N1CCC(c2c[nH]c3ccccc23)CC1")
"+ (+ = pIC50 4.00-4.99)"
>>> measured_value("Cc1ccc2[nH]cc(C3CCN(S(=O)(=O)c4ccccc4OC(F)(F)F)CC3)c2c1")
"+ (+ = pIC50 4.00-4.99)"
>>> measured_value("CC(=O)N1CCC(c2c[nH]c3cc(C#N)ccc23)CC1")
"+ (+ = pIC50 4.00-4.99)"

====

Biological target: Recombinant human TDO (Homo sapiens)
Assay: hTDO biochemical coupled assay
Details: 330 μM L-tryptophan, coupled with kynurenine formamidase
TEST READOUT: hTDO biochemical assay pIC50

>>> measured_value("CNCC1CN(c2c[nH]c3ccccc23)CCN1S(C)(=O)=O (stereo not drawn)")
"+ (+ = pIC50 4.00-4.99)"
>>> measured_value("CS(=O)(=O)N1CCC(C2C(=O)Nc3cc(F)ccc32)CC1 (stereo not drawn)")
"+− (+− = pIC50 <4.00)"
>>> measured_value("CC(=O)N1CCC(c2c[nH]c3ccccc23)CC1")
"+− (+− = pIC50 <4.00)"
>>> measured_value("CCn1ncc(S(=O)(=O)N2CCC3(CC2)C(=O)Nc2ccccc23)c1C")
"+− (+− = pIC50 <4.00)"
>>> measured_value("CC(C)S(=O)(=O)N1CCC(c2c[nH]c3ccccc23)CC1")
"+− (+− = pIC50 <4.00)"
>>> measured_value("Cc1[nH]c2ccccc2c1C1CCN(S(=O)(=O)c2ccc([N+](=O)[O-])cc2)CC1")
"+− (+− = pIC50 <4.00)"
>>> measured_value("COCCS(=O)(=O)N1CCC(c2c[nH]c3ccccc23)CC1")
"+ (+ = pIC50 4.00-4.99)"
>>> measured_value("NC(=O)N1CCC(c2c[nH]c3ccccc23)CC1")
"+− (+− = pIC50 <4.00)"
>>> measured_value("Cc1cccc2c(C3CCN(S(=O)(=O)c4ccc5c(c4)CN(C(=O)C(F)(F)F)CC5)CC3)c[nH]c12")
"+− (+− = pIC50 <4.00)"
>>> measured_value("Cc1cc(C(=O)N2CCC(c3c(C)[nH]c4ccccc34)CC2)no1")
"+− (+− = pIC50 <4.00)"
>>> measured_value("Cc1ccc2[nH]cc(C3CCN(S(C)(=O)=O)CC3)c2c1")
"+− (+− = pIC50 <4.00)"
>>> measured_value("CCCS(=O)(=O)N1CCC(c2c[nH]c3ccccc23)CC1")
"+ (+ = pIC50 4.00-4.99)"
